# TGI listing for each entry below
system: SN12C renal; test: NCI tumour cell line growth inhibition, 384-well format

Worked cases, answers included:
Output measured TGI for this item: `O=P(O)(O)C(O)(Cn1ccnc1)P(=O)(O)O`
> 100 µM

Recall and state the measured TGI for `C=CC(=O)Nc1cccc(Nc2nc(Nc3ccc(OCCOC)cc3)ncc2F)c1` .
4.07 µM

Give me measured TGI, please, for this compound: `CNC(=O)c1cn(C[C@H](F)CCc2ccc(NC(=O)Cc3cc(OC4CC(F)(F)C4)cc(C)n3)nn2)nn1`
0.32 µM

As a next step, examine the compound that follows.
Give recorded TGI. `Cc1noc(C)c1-c1ccc2[nH]c(=O)n3c2c1OC[C@@H]3c1ccccn1`
> 100 µM

----------
tested on: NCI-H226 lung; assay: NCI tumour cell line growth inhibition, 384-well format
quantity_name: GI50

Answered examples (3):
Complete the entry with GI50 for `C=CC(=O)Nc1cccc(Nc2nc(Nc3ccc(OCCOC)cc3)ncc2F)c1`
1000 nM

Return GI50 (reported value) for this compound: `CNC(=O)c1cn(C[C@H](F)CCc2ccc(NC(=O)Cc3cc(OC4CC(F)(F)C4)cc(C)n3)nn2)nn1`
> 100000 nM

Name the recorded GI50 of the compound listed here: `Cc1noc(C)c1-c1ccc2[nH]c(=O)n3c2c1OC[C@@H]3c1ccccn1`
1430 nM

Next:
Tell me GI50 reported for `CNC(=O)c1ccc(-c2cnc3ncc(Cc4ccc5ncccc5c4)n3n2)cc1F`
> 100000 nM

----------
tested on: OVCAR-8 ovarian; assay: NCI tumour cell line growth inhibition, 384-well format
quantity_name: GI50

Give GI50 for this entry on OVCAR-8 ovarian: `C=CC(=O)Nc1cccc(Nc2nc(Nc3ccc(OCCOC)cc3)ncc2F)c1`
2510 nM

# assay system OVCAR-8 ovarian: give GI50 of `C=CC(=O)N1CCN(c2ncnc3c(F)c(-c4c(O)cccc4F)c(Cl)cc23)CC1`
2460 nM

Report measured GI50 on OVCAR-8 ovarian; entry: `Cc1noc(C)c1-c1ccc2[nH]c(=O)n3c2c1OC[C@@H]3c1ccccn1`
473 nM

Next molecule, GI50 to be filled in.
Using OVCAR-8 ovarian as the test system, report measured GI50 of `O=P(O)(O)C(O)(Cn1ccnc1)P(=O)(O)O` .
> 100000 nM

----------
Let's look at some molecules and their measured GI50.
test system: COLO 205 colon; test: NCI tumour cell line growth inhibition, 384-well format

Worked examples, 2 molecules total:
Fill in GI50 for `C=CC(=O)N1CCN(c2ncnc3c(F)c(-c4c(O)cccc4F)c(Cl)cc23)CC1` tested with COLO 205 colon.
2330 nM

State GI50 (COLO 205 colon) of `Cc1noc(C)c1-c1ccc2[nH]c(=O)n3c2c1OC[C@@H]3c1ccccn1` .
527 nM

Continuing:
Fill in GI50 for `Cc1ncc(NC(=O)c2ccc(CN3CCN(C)CC3)c(C(F)(F)F)c2)cc1Nc1nccc(-c2cccnc2)n1` tested with COLO 205 colon.
1270 nM

System COLO 205 colon. Read-out GI50. Item `C=CC(=O)Nc1cccc(Nc2nc(Nc3ccc(OCCOC)cc3)ncc2F)c1` . Report value.
5330 nM

Specify the recorded GI50 for `O=P(O)(O)C(O)(Cn1ccnc1)P(=O)(O)O` , system: COLO 205 colon.
> 100000 nM

----------
Reported values of TGI for individual entries
system: OVCAR-8 ovarian; experiment: NCI tumour cell line growth inhibition, 384-well format
Response body: numeric value in µM, unit text excluded.

Fill in TGI for `Cc1ncc(NC(=O)c2ccc(CN3CCN(C)CC3)c(C(F)(F)F)c2)cc1Nc1nccc(-c2cccnc2)n1` tested with OVCAR-8 ovarian.
23.5

Field: next compound
// fetch TGI; item: `C=CC(=O)Nc1cccc(Nc2nc(Nc3ccc(OCCOC)cc3)ncc2F)c1` ; system: OVCAR-8 ovarian
8.72

----------
Listed here are molecules together with their documented TGI.
test system: 786-0 renal; experiment: NCI tumour cell line growth inhibition, 384-well format

Solved entries:
Report TGI, nothing else, for this molecule: `CNC(=O)c1ccc(-c2cnc3ncc(Cc4ccc5ncccc5c4)n3n2)cc1F`
> 100 µM

Provide only the value of recorded TGI for `Cc1ncc(NC(=O)c2ccc(CN3CCN(C)CC3)c(C(F)(F)F)c2)cc1Nc1nccc(-c2cccnc2)n1`
2.89 µM

---
Write down TGI measured for item `Cc1noc(C)c1-c1ccc2[nH]c(=O)n3c2c1OC[C@@H]3c1ccccn1`
> 100 µM

Note TGI for the molecule shown: `C=CC(=O)N1CCN(c2ncnc3c(F)c(-c4c(O)cccc4F)c(Cl)cc23)CC1`
12.4 µM

----------
Observed GI50, system NCI-H460 NSCLC.

Sample records with GI50:
Supply recorded GI50 for `C=CC(=O)N1CCN(c2ncnc3c(F)c(-c4c(O)cccc4F)c(Cl)cc23)CC1` here.
2.78 µM

Tell me measured GI50 for `O=P(O)(O)C(O)(Cn1ccnc1)P(=O)(O)O` please.
> 100 µM

Annotate the compound `Cc1ncc(NC(=O)c2ccc(CN3CCN(C)CC3)c(C(F)(F)F)c2)cc1Nc1nccc(-c2cccnc2)n1` with its measured GI50.
1.65 µM

New cases:
In one line, give reported GI50 of the entry `C=CC(=O)Nc1cccc(Nc2nc(Nc3ccc(OCCOC)cc3)ncc2F)c1` .
2.02 µM

----------
Parameter: TGI. Scope: all listed entries.
tested on: M14 melanoma; assay: NCI tumour cell line growth inhibition, 384-well format

# return recorded TGI for input `Cc1noc(C)c1-c1ccc2[nH]c(=O)n3c2c1OC[C@@H]3c1ccccn1`
> 100 µM

Identify measured TGI corresponding to `O=P(O)(O)C(O)(Cn1ccnc1)P(=O)(O)O`
> 100 µM

Specify TGI for `CNC(=O)c1cn(C[C@H](F)CCc2ccc(NC(=O)Cc3cc(OC4CC(F)(F)C4)cc(C)n3)nn2)nn1` and stop.
> 100 µM

// next entry
Given `C=CC(=O)Nc1cccc(Nc2nc(Nc3ccc(OCCOC)cc3)ncc2F)c1` , respond with its TGI.
14.7 µM

----------
test system: SW-620 colon; test: NCI tumour cell line growth inhibition, 384-well format
quantity_name: GI50

Observe how each entry below is paired with its result.
Provide the reported GI50 (system: SW-620 colon) for `CNC(=O)c1ccc(-c2cnc3ncc(Cc4ccc5ncccc5c4)n3n2)cc1F`
> 100 µM

Param request: GI50 | system SW-620 colon | item `C=CC(=O)Nc1cccc(Nc2nc(Nc3ccc(OCCOC)cc3)ncc2F)c1`
1.84 µM

Using SW-620 colon as the test system, report measured GI50 of `O=P(O)(O)C(O)(Cn1ccnc1)P(=O)(O)O` .
> 100 µM

Provide measured GI50 on SW-620 colon for `Cc1ncc(NC(=O)c2ccc(CN3CCN(C)CC3)c(C(F)(F)F)c2)cc1Nc1nccc(-c2cccnc2)n1` please.
1.84 µM

Continue with the compound presented below.
Determine reported GI50 for `CNC(=O)c1cn(C[C@H](F)CCc2ccc(NC(=O)Cc3cc(OC4CC(F)(F)C4)cc(C)n3)nn2)nn1` ; test system: SW-620 colon.
> 100 µM
